Target: T1, AMHR-II/Fc fusion protein (human, UniProt Q16671 18-149, limits assumed)
T1 construct: also called AMHR-II recombinant receptor expressed in the form of fusion protein with a region Fc; recombinant target; not shown: Fc region
T1 sequence (Q16671 18-149 limits assumed): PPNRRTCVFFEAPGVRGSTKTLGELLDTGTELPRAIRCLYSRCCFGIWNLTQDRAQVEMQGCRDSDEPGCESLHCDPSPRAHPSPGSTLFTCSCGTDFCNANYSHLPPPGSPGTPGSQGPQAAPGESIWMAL
Assay: phage-scFv ELISA on AMHRII-Fc; mean of at least four values, standard deviation in parentheses
Method: The secondary screening consists of analysing the clones selected at the end of the primary screening individually. For this, the 113 unique mutated clones were transferred to a culture plate (96 well-1.2 ml). After production of the phage particles, the culture supernatants containing the phages-scFv were used for carrying out an ELISA binding assay. The binding of the mutated clones was evaluated at two dilutions (½ and ¼ of the supernatants containing the scFv-phages). […]
Measured parameter: Ratio AB invention/chimeric 12G4

binder="4D_91 (mutated huLFB112 phage-scFv clone) (scFv, V domains shown, scFv on M13 phage, tested as culture supernatant; Q1E: TAG codon suppressed, translated to E in E. coli XL1-blue; not shown: The 15-residue scFv peptide linker (positions 116-130 of the scFv numbering) and the M13 phage display partner) VH: EVQLVQSGAEAKKPGASVKVSCKASGYTFTSYHIHWVRQAPGQRLEWMGWIYPGDDSTKYSQKFQGRVTITRDTSASTAYMELSSLRSEDTAVYYCTRGDRFAYWGQGTLVTVSS VL: DIQMTQSPSTLSASVGDRVTITCRASSSVRYIAWYQQKPGKAPKLLIYSTSSLESGVPSRFSGSGSGTEFTLTISSLQPDDFATYYCLQWSSYPWTFGGGTKVEIK" measured_parameter="Ratio AB invention/chimeric 12G4" readout_number=0.8

The reported numbers originate from patent US20130136743A1.
